- measured.target: UniProt P14416
- protocol.description: cell-based
- details: Gi1 Activation EC50, 30 min; hD2R in HEK293 cells
Doc: threshold 100 nM (exclusive). Items with EC50 beneath it return MET; others return NOT MET.

Strictly below 100 nM in EC50? CC1Cc2ccccc2N1C(=O)c1nc2ccccc2s1 (centres unmarked) [Compound 2, reference compound]
MET

Repeat for the following compound: CN(C[C@@H]1C[C@H]1CCNC(=O)c1cc2ccccc2[nH]1)[C@@H]1Cc2cccc3[nH]c(=O)n(c23)C1
NOT MET

Repeat for the following compound: CN(CCCCNC(=O)c1ccc2scnc2c1)[C@@H]1Cc2cccc3[nH]c(=O)n(c23)C1
NOT MET

Repeat for the following compound: CN(CCCCNC(=O)c1nc2ccccc2s1)[C@@H]1Cc2cccc3[nH]c(=O)n(c23)C1
NOT MET

Repeat for the following compound: CN(CC[C@@H]1C[C@H]1CNC(=O)c1cc2ccccc2[nH]1)[C@@H]1Cc2cccc3[nH]c(=O)n(c23)C1
NOT MET

---

- measured.target: hD2R (D2SR), cAMP inhibition (Homo sapiens)
- Sequence (P14416 1-414 isoform P14416-2): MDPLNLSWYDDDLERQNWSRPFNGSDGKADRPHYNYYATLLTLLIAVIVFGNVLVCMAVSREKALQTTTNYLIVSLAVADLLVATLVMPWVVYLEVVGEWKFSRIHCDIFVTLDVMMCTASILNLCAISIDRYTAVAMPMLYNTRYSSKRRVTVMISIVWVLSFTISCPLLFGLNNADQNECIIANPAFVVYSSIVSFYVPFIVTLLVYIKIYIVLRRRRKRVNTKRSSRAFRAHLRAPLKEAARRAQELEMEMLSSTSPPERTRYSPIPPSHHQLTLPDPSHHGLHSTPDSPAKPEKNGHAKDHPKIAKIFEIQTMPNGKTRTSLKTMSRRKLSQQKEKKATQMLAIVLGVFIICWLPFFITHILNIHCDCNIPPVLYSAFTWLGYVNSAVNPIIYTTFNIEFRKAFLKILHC
- protocol.description: cell-based
- details: HEK293, read-out: cAMP Inhibition Emax
measure.name: Emax (%)
Record the value in %, omitting the unit from your answer.

Fill in the blank: the reported Emax of CN(C[C@@H]1C[C@H]1CCNC(=O)c1cc2ccccc2[nH]1)[C@@H]1Cc2cccc3[nH]c(=O)n(c23)C1 [Compound 19] is ____.
60.5

Repeat for the following compound: CN(CC[C@@H]1C[C@H]1CNC(=O)c1cc2ccccc2[nH]1)[C@@H]1Cc2cccc3[nH]c(=O)n(c23)C1 [Compound 20]
59.8

Repeat for the following compound: CN(CCCCNC(=O)c1nc2ccccc2s1)[C@@H]1Cc2cccc3[nH]c(=O)n(c23)C1 [Compound 9]
84

Repeat for the following compound: CC1Cc2ccccc2N1C(=O)c1nc2ccccc2s1 (centres unmarked) [Compound 2, reference compound]
58.5

Repeat for the following compound: CN(CCCCNC(=O)c1ccc2scnc2c1)[C@@H]1Cc2cccc3[nH]c(=O)n(c23)C1 [Compound 8]
95.4

---

- measured.target: hD2R (D2SR), β-arrestin 2 recruitment (Homo sapiens, UniProt P14416)
- Sequence (P14416 1-414 isoform P14416-2): as above
- Sequence (P32121 whole entry partner): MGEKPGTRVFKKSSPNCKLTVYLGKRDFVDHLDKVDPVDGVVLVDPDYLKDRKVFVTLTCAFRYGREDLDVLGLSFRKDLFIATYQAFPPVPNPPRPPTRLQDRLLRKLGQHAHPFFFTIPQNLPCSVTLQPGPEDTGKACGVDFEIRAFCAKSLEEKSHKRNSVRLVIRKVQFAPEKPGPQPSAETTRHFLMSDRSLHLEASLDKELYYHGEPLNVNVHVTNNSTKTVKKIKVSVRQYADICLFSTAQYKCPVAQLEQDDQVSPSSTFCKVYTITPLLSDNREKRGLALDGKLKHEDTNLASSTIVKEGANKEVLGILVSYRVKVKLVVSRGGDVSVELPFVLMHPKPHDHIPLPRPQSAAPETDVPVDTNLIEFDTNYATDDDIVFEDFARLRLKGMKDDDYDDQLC
- protocol.description: cell-based
Give measured EC50 for each item. Keep answers brief.
Record the value in µM, omitting the unit from your answer.

Fill in the blank: the reported EC50 of CN(CC[C@@H]1C[C@H]1CNC(=O)c1cc2ccccc2[nH]1)[C@@H]1Cc2cccc3[nH]c(=O)n(c23)C1 is ____.
0.208

Repeat for the following molecule: CN(C[C@@H]1C[C@H]1CCNC(=O)c1cc2ccccc2[nH]1)[C@@H]1Cc2cccc3[nH]c(=O)n(c23)C1
0.0805

Repeat for the following molecule: CN(CCCCNC(=O)c1nc2ccccc2s1)[C@@H]1Cc2cccc3[nH]c(=O)n(c23)C1
0.794

Repeat for the following molecule: CN(CCCCNC(=O)c1ccc2scnc2c1)[C@@H]1Cc2cccc3[nH]c(=O)n(c23)C1
0.208

---

- System: hD2R
- protocol.description: Pairwise bias factor calculation
- Format: cell-based, human
- details: logarithmic scale; relative to quinpirole; negative = GoA bias; 30 min data
measure.name: Bias factor Gi1–GoA activation

> print(dat)
                                   molecule  measured.target                    measure.name  recorded.result
1  CN(CCCCNC(=O)c1ccc2scnc2c1)[C@@H]1Cc2cccc3[nH]c(=O)n(c23)C1 [Compound 8]             hD2R  Bias factor Gi1–GoA activation            –0.44
2  CN[C@@H]1Cc2cccc3[nH]c(=O)n(c23)C1 [Sumanirole, reference compound]             hD2R  Bias factor Gi1–GoA activation            –0.54
3  CN(CCCCNC(=O)c1cc2ccccc2[nH]1)[C@@H]1Cc2cccc3[nH]c(=O)n(c23)C1 [Compound 1]             hD2R  Bias factor Gi1–GoA activation            –0.98
